# subject of test: human melanocortin-1 receptor hMCR-1 expressed by the human melanoma cell line HBL (human, UniProt Q01726 1-317)
# Sequence (Q01726 whole entry): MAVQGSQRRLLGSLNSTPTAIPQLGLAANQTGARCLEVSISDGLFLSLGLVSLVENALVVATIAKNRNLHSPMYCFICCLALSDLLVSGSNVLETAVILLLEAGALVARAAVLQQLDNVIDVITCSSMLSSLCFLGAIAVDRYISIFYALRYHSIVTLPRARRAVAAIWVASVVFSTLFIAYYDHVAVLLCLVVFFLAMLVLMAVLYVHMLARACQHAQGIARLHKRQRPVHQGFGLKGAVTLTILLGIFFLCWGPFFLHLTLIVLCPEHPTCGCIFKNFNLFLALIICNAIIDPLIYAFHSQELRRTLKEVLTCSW
# experiment description: cell-based or functional assay
Bridge positions count the residues as written; N and C are the ends. Square brackets hold non-standard residues; d marks the D form. Nle = CCCC[C@H](N)C(=O)O; Orn = NCCC[C@H](N)C(=O)O; Dab = NCC[C@H](N)C(=O)O
quantity kind: MC-1 Emax (average; cAMP HBL) (%)

binder="Ac-[Nle]EP[dF]R[Dab]W-NH2 (lactam 2-6; SMILES CCCC[C@H](NC(C)=O)C(=O)N[C@H]1CCC(=O)NCC[C@@H](C(=O)N[C@@H](Cc2c[nH]c3ccccc23)C(N)=O)NC(=O)[C@H](CCCNC(=N)N)NC(=O)[C@@H](Cc2ccccc2)NC(=O)[C@@H]2CCCN2C1=O) [Ac-Nle-cyclo(Glu-Pro-D-Phe-Arg-Dab)-Trp-NH2]" quantity_kind="MC-1 Emax (average; cAMP HBL)" unit_of_measure=% assay_value=97
binder="Ac-[Nle]ER[dF]R[Dab]W-NH2 (lactam 2-6) [Ac-Nle-cyclo(Glu-Arg-D-Phe-Arg-Dab)-Trp-NH2]" quantity_kind="MC-1 Emax (average; cAMP HBL)" unit_of_measure=% assay_value=100
binder="Ac-[Nle]E[Orn][dF]R[Dab]W-NH2 (lactam 2-6) [Ac-Nle-cyclo(Glu-Orn-D-Phe-Arg-Dab)-Trp-NH2]" quantity_kind="MC-1 Emax (average; cAMP HBL)" unit_of_measure=% assay_value=109
binder="Ac-[Nle]EH[dF]A[Dab]-NH2 (lactam 2-6; SMILES CCCC[C@H](NC(C)=O)C(=O)N[C@H]1CCC(=O)NCC[C@@H](C(N)=O)NC(=O)[C@H](C)NC(=O)[C@@H](Cc2ccccc2)NC(=O)[C@H](Cc2c[nH]cn2)NC1=O) [Ac-Nle-cyclo(Glu-His-D-Phe-Ala-Dab)-NH2]" quantity_kind="MC-1 Emax (average; cAMP HBL)" unit_of_measure=% assay_value=73
